Exercise: for every item that follows, state its recorded inhibition at 2.5 µM.
molecular target: EhHsp90 ATP-binding domain (Entamoeba histolytica); construct: gene EHI_102270; cloned from genomic DNA in pET28a, E. coli BL21(DE3); His tag said to be cut by TEV; pocket residues C49, C103, R109; assay: bis-ANS fluorescence displacement screen; conditions: read-out: Percent inhibition of fluorescence in protein screen at 2.5 μM (%)
Sequence (C4MBP1 1-215): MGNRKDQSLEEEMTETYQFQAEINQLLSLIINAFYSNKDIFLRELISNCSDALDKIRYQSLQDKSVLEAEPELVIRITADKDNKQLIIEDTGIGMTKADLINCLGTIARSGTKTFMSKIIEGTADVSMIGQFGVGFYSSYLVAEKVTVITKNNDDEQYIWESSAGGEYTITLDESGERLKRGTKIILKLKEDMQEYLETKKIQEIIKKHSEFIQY
Structures can show the parent of a compound that is named as a salt.
Return type: number; implicit unit %.

input: Tell us which inhibition at 2.5 µM value is on record for N#C/C(=C\c1ccc(O)c(O)c1)C(=O)c1ccc(O)c(O)c1 [Tyrphostin AG 538]
output: 75

input: Tell us which inhibition at 2.5 µM value is on record for C[n+]1cc2c3c(ccc2c2ccc4cc5c(cc4c21)OCO5)OCO3 [Sanguinarine sulfate]
output: 71.3

input: Tell us which inhibition at 2.5 µM value is on record for O=C1c2c(O)ccc(O)c2C(=O)c2c(NCCNCCO)ccc(NCCNCCO)c21 [Mitoxantronedihydrochloride]
output: 95.3

input: Tell us which inhibition at 2.5 µM value is on record for CCN(CC)CCNc1ccc(CO)c2sc3ccccc3c(=O)c12 [Hycanthone]
output: 90.9

input: Tell us which inhibition at 2.5 µM value is on record for CC(C)/N=c1\cc2n(-c3ccc(Cl)cc3)c3ccccc3nc-2cc1Nc1ccc(Cl)cc1 [Clofazimine]
output: 73.7

input: Tell us which inhibition at 2.5 µM value is on record for N=C1C=CC(=C(c2ccc(N)cc2)c2ccc(N)cc2)C=C1 [Pararosaniline pamoate]
output: 99

input: Tell us which inhibition at 2.5 µM value is on record for CN(C)c1ccc(C(=C2C=CC(=[N+](C)C)C=C2)c2ccccc2)cc1 [WB 64 (Malachite Green)]
output: 84.9

input: Tell us which inhibition at 2.5 µM value is on record for COc1cccc2c1C(=O)c1c(O)c3c(c(O)c1C2=O)C[C@@](O)(C(C)=O)C[C@@H]3O[C@H]1C[C@H](N)[C@H](O)[C@H](C)O1 [Daunorubicin hydrochloride]
output: 83.2

###

Exercise: for every item that follows, state its recorded inhibition at 2.5 µM.
Target: EhHsp90 ATP-binding domain (Entamoeba histolytica)
Construct: gene EHI_102270; cloned from genomic DNA in pET28a, E. coli BL21(DE3); His tag said to be cut by TEV; pocket residues C49, C103, R109
Assay: bis-ANS fluorescence displacement screen
Conditions: read-out: Percent inhibition of fluorescence in protein screen at 2.5 μM (%)
Source text: bis-ANS fluorescence displacement screen on EhHsp90 ATP-binding domain
Counter-ions that a name gives are not always drawn.
Return type: number; implicit unit %.

input: Tell us which inhibition at 2.5 µM value is on record for O=C1Nc2ccc(I)cc2/C1=C/c1cc(Br)c(O)c(Br)c1
output: 70.5

input: Tell us which inhibition at 2.5 µM value is on record for COc1ccc2cc3[n+](cc2c1OC)CCc1cc2c(cc1-3)OCO2 [Berberine chloride]
output: 78.3

input: Tell us which inhibition at 2.5 µM value is on record for C=CC1=C(C)/C(=C/c2[nH]c(Cc3[nH]c(/C=C4\NC(=O)C(C)=C4C=C)c(C)c3CCC(=O)O)c(CCC(=O)O)c2C)NC1=O
output: 73.7

input: Tell us which inhibition at 2.5 µM value is on record for CN(C)c1ccc(C(=C2C=CC(=[N+](C)C)C=C2)c2ccc(N(C)C)cc2)cc1
output: 99.3

input: Tell us which inhibition at 2.5 µM value is on record for O=C1c2ccccc2C(=O)c2c(O)c(O)cc(O)c21
output: 75

input: Tell us which inhibition at 2.5 µM value is on record for CC[C@@]1(O)C[C@H](O[C@H]2C[C@H](N(C)C)[C@H](O)[C@H](C)O2)c2c(cc3c(c2O)C(=O)c2c(O)ccc(O)c2C3=O)[C@H]1C(=O)OC [Rutilantin]
output: 77.1

input: Tell us which inhibition at 2.5 µM value is on record for CCN(CC)Cc1cc(Nc2ccnc3cc(Cl)ccc23)ccc1O [Amodiaquindihydrochloride dihydrate]
output: 82.1

input: Tell us which inhibition at 2.5 µM value is on record for CO[C@H]1/C=C/O[C@@]2(C)Oc3c(C)c(O)c4c(c3C2=O)C2=NC3(CCN(CC(C)C)CC3)NC2=C(NC(=O)/C(C)=C\C=C\[C@H](C)[C@H](O)[C@@H](C)[C@@H](O)[C@@H](C)[C@H](OC(C)=O)[C@@H]1C)C4=O
output: 73.7
